Molecular target: monoclonal antibody (mAb) to detect Aβ42-derived peptide species with free N-terminus (generated in Example 1)
Assay: competition ELISA: soluble peptide against plate-bound DAEFRH-C-BSA for the biotinylated mAb, FIG. 2
Below, each entry is listed with its recorded IC50.

>>> observed("DKELRIC [Peptide 3001 DKELRI]")
"< 0.5 µg/mL"
>>> observed("DWELRIC [Peptide 3002 DWELRI]")
"> 0.5 µg/mL"

Dear colleague, please send me the reported IC50 for EAEFRGC [Peptide 3006 EAEFRG] when you can.
< 0.5 µg/mL

Indicate the recorded IC50 value for this binder: YAEFRGC [Peptide 3005 YAEFRG]
> 0.5 µg/mL

Provide measured IC50 value, entry: DYEFRGC [Peptide 3007 DYEFRG]
< 0.5 µg/mL
